FYI, the data here is from PubChem BioAssay.

Biological target: Nuclear receptor coactivator 3 (Homo sapiens) (UniProt Q9Y6Q9)
Sequence (Q9Y6Q9 whole entry, looked up): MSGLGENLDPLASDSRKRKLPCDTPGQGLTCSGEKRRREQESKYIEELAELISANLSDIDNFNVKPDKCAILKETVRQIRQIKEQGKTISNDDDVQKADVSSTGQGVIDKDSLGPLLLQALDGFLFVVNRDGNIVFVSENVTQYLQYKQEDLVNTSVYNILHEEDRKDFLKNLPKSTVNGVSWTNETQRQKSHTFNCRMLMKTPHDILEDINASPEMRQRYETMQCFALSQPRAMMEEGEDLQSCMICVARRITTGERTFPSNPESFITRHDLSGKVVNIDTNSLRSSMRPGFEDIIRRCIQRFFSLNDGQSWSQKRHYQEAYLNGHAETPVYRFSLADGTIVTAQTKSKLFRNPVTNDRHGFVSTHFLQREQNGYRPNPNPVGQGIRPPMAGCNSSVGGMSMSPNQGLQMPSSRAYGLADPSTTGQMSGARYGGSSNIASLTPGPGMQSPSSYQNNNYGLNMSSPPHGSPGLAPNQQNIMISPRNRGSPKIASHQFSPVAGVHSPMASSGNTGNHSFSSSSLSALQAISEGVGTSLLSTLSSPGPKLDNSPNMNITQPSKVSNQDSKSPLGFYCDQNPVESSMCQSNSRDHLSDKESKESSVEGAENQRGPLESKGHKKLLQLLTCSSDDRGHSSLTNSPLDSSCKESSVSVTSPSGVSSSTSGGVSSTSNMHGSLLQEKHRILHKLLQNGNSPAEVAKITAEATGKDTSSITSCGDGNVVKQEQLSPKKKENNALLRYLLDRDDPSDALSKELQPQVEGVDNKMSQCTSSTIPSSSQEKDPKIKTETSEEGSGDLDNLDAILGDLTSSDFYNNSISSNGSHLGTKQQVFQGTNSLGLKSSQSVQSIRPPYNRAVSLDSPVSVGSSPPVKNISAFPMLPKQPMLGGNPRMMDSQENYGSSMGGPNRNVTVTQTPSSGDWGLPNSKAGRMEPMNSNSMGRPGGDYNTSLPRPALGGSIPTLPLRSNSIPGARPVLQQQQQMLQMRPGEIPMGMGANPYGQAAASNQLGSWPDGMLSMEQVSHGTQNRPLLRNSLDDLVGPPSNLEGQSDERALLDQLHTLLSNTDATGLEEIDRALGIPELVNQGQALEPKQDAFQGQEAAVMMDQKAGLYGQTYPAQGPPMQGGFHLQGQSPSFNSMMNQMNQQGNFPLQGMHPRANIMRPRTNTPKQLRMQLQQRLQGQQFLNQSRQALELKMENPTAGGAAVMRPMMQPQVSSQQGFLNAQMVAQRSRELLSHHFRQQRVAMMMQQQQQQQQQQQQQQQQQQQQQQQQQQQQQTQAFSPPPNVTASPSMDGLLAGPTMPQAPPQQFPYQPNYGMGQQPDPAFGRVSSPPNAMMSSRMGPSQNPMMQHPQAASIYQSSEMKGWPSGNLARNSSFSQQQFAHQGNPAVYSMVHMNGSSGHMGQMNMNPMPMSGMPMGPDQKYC
Assay: SRC3 coactivator transcriptional activity inhibitors, confirmation, cell-based, luminescence, quadruplicate (AID 588792);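 further: 0% = DMSO treated cells and 100% = gossypol at 36 µM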
Conditions: HEK293 GAL4-SRC3 luciferase reporter, at 3.6 µM, active compounds read high
What inhibition was measured for each of the following?
Answers are plain numbers, in %.

Use these answered entries as a reference point.
| Compound | inhibition / % |
| --- | --- |
| COc1ccc(C(=O)NN(C)c2nc(C(F)(F)F)nc3ccccc23)cc1 | 51.1 |
| CC(C)(C)c1ccc(C(=O)NCCOc2ccccc2F)cc1 | 10.1 |
| CCCN1CCN(C2CCCCC2NS(=O)(=O)c2ccccc2)CC1 (stereo unspecified) | -7.15 |

# batch: return inhibition for each of the 3 compounds below
1. C(=N\Nc1ccc2ccccc2n1)/c1ccc2c(c1)OCCO2
2. CNc1cccnc1C=NNC(N)=S
3. COC(=O)c1cc(Cl)cc(Cl)c1OS(=O)(=O)N(C)C

[34.6, 71.3, -11.6]

----------
Target: Nuclear receptor coactivator 3 (Homo sapiens)
Assay: SRC3 coactivator transcriptional activity inhibitors, confirmation, cell-based, luminescence, quadruplicate (AID 588792);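 further: 0% = DMSO treated cells and 100% = gossypol at 36 µM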
Settings: HEK293 GAL4-SRC3 luciferase reporter, at 3.6 µM
Activity calls are given as the source filed them.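 How the source made its calls: active means mean inhibition over 43.08%, the solvent-only control mean plus 3 SD; inactive means the rest.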
Could you please pick one outcome from this set? TRUE (active), FALSE (inactive)

Example cases with answers are listed next.
| Molecule | Assigned Label |
| --- | --- |
| COc1ccc(-c2nsc3c(N4CCCCC4)ncnc23)cc1 | FALSE |
| C/C(=N\NC(N)=S)C12CC3CC(CC(C3)C1)C2 | FALSE |
| Cc1ccc(C(=O)NCCn2cc(SCC(=O)Nc3nnc(C)s3)c3ccccc32)cc1 | FALSE |

How was O=C(N/N=C/c1ccccc1O)c1ccncc1 classified in this test?
FALSE

How was CCOc1ccc(/C=N/OCC(=O)NCc2ccc3c(c2)OCO3)cc1OC classified in this test?
FALSE

How was CCCCN(CC)Cc1ccc(CNC(=S)Nc2ccc(C)cc2Cl)o1 classified in this test?
FALSE

How was COC1C=CC=C(C)C(=O)NC2=CC(=O)C(N)=C(CC(C)CC(OC)C(O)C(C)C=C(C)C1OC(N)=O)C2=O (configuration not stated) classified in this test?
TRUE

How was COc1cccc(/C=N/NC(=O)CNC(=O)C(c2ccccc2)c2ccccc2)c1O classified in this test?
FALSE

How was CN(Cc1cccc(F)c1)C(=O)C1CC(=O)N(Cc2ccco2)C1 (configuration not stated) classified in this test?
FALSE

How was COCCn1c(C)cc(C(=O)CSc2nnnn2C2CCCC2)c1C classified in this test?
FALSE

How was O=C(c1cc2sccc2n1Cc1ccccc1)N1CCN(c2nc3ccccc3s2)CC1 classified in this test?
FALSE

How was O=c1[nH]c(=O)n([C@H]2C[C@H](O)[C@@H](CO)O2)cc1F classified in this test?
TRUE

How was O=C(O)C1CCCN1c1nc(-c2ccc(Cl)c(Cl)c2)cc(C(F)(F)F)n1 (configuration not stated) classified in this test?
TRUE

How was COc1ccc(-c2cc(=O)oc3c(C)c(O)ccc23)cc1 classified in this test?
TRUE

How was O=C(/C=C/c1ccc(OCCCF)cc1)Nc1ccnc(-c2cccnc2)n1 classified in this test?
FALSE

----------
Molecular target: Steroidogenic factor 1 (Homo sapiens)
Test: SF1 (NR5A1) inverse agonists, counter-screen for LRH-1 inverse agonist project, cell-based, luminescence, high throughput (AID 651614);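 further: cells cotransfected with StAR promoter reporter and SF1 expression vector; 0% = vehicle on cells with receptor and 100% = vehicle on cells lacking receptor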
Settings: cell-based SF1 luciferase reporter, at 3.6 µM, active compounds read high
Readout: inhibition (%)
One number for each entry, in %.

# batch: return inhibition for each of the 3 molecules below
1. COc1ccc(/C=C/c2nc3ccccc3c(=O)o2)cc1
2. N=c1c2c(-c3ccccc3)c(-c3ccccc3)n(Cc3ccco3)c2ncn1CCO
3. Cc1c(Cl)cccc1NC(=O)CSc1nnc(C)n1CC1CCCO1 (configuration not stated)

1. 37.2
2. 64
3. 14.9

----------
What inhibition was measured for each of the following?
System: transactivating tegument protein VP16 (Human herpesvirus 1)
Test: VP16 transactivation reporter inhibitors, counter-screen for SRC2 inhibitor project, cell-based, luminescence, single concentration (AID 652007)
Settings: cell-based VP16 transactivation luciferase reporter, at 8.9 µM, active compounds read high
Give bare numbers, in %.

| Molecule | Unit Abbreviation | inhibition |
| --- | --- | --- |
| Cc1ccc(/C=C2/SC(=S)N(CCCC(=O)Nc3ccc(O)cc3)C2=O)cc1 | % | 43.6 |
| O=C(CCl)Nc1ccc(Oc2cnc3ccccc3n2)cc1 | % | 19.5 |
| O=C(O)c1ccc(N/N=C/c2ccc3c(c2)OCO3)cc1 | % | -0.58 |

# batch: return inhibition for each of the 4 molecules below
1. CN(C)Cc1ccc(-c2nc3cccc4c3n2CCNC4=O)cc1
2. Cc1ccc(NC(=O)CSc2ncnc3ccccc23)cc1S(=O)(=O)N1CCCCC1
3. Cn1nnnc1Sc1ncnc2scc(-c3ccc(C(F)(F)F)cc3)c12
4. Cc1ccc([C@@H]2CC=C(C(=O)O)[C@H](c3ccccc3)N2S(=O)(=O)c2ccccc2C)cc1

-27.9
6.85
35.2
0.1

# batch: return inhibition for each of the 2 molecules below
1. S=C(NCc1ccc(Cl)cc1)NC1CCN(Cc2ccccc2)CC1
2. Clc1ccc(CSc2nnc(-c3ccncc3)o2)cc1

1: -17.5; 2: -11.8

# batch: return inhibition for each of the 7 molecules below
1. CC(C)(C)C(=O)Nc1ccc(-c2cc3cc(Cl)ccc3o2)cc1
2. CCOC(=O)c1cccc(NS(=O)(=O)c2ccc(NC(C)=O)cc2)c1
3. Cc1ccc(NC(=O)COC(=O)C2=NN(c3ccccc3)C(=O)CC2)c(Br)c1
4. CCn1c(Oc2ccc(F)cc2)nc2c1c(=O)n(C)c(=O)n2C
5. CCN(CC)C(=O)C1CCCN(c2ncnc3c2cnn3-c2cccc(C)c2)C1 (centres undefined)
6. Cc1ccc(NC(=O)C2CCN(C(=O)c3ccccc3C)CC2)nc1
7. CC(=O)OC1CC2C(C)(C)C(=O)C=CC2(C)C2CCC3(C)C(c4ccoc4)OC(=O)C4OC43C12C (centres undefined)

1. -83.9
2. -6.82
3. -16.2
4. 2.83
5. -13.2
6. -5.97
7. 43.9

# batch: return inhibition for each of the 5 molecules below
1. COc1ccc(C(=O)Nc2ccc(C)cn2)c(OC)c1
2. COC(=O)c1ccc2c(=O)[nH]c(COC(=O)c3[nH]c(C)c(C(C)=O)c3C)nc2c1
3. COc1ccccc1-c1cn[nH]c1-c1ccc(O)cc1O
4. Cc1sc2ncnc(N3CCC(C(=O)Nc4ccc(S(N)(=O)=O)cc4)CC3)c2c1C
5. Cc1cc(C)cc(NC(=O)Nc2cc(S(=O)(=O)N(C)C)ccc2C)c1

1: 23.7; 2: -18.3; 3: 1.82; 4: -3.11; 5: -9.93

----------
Assay: VP16 transactivation reporter inhibitors, counter-screen for LRH-1 inverse agonist project, cell-based, luminescence, high throughput (AID 651615)
Settings: Gal4-VP16 luciferase reporter cells, at 3.6 µM
The source made the active and inactive calls. No stated cut-off is given here; in the data, active means inhibition above about 33%; inactive means the rest.
Could you please pick one outcome from this set? yes (1) = active, no (0) = inactive

Example cases with answers are listed next.
| Compound | Assigned Label |
| --- | --- |
| Cc1c(NC(=O)c2cc(-c3cccs3)nc3ccccc23)c(=O)n(-c2ccccc2)n1C | no (0) |
| CC1Cc2ccccc2N1c1ncnc(N)c1[N+](=O)[O-] (stereo not given) | yes (1) |
| COc1ccc(-c2n(Cc3ccccc3)c3ccccc3[n+]2Cc2ccccc2)cc1 | yes (1) |

How was COc1ccc(NC(=O)Cn2nnc(C(=O)Nc3ccccc3C)c2N)cc1 classified in this test?
no (0)

How was CC1OC(CC(=O)O)CC2=C1C(=O)c1c(O)cccc1C2=O (stereo not given) classified in this test?
yes (1)

How was CN(C(=O)c1cccc(NC(=O)Cc2ccc(NC(=O)C3CCCN(C(=O)CCc4ccccc4)C3)cc2)c1)C1CCCCC1 (stereo not given) classified in this test?
yes (1)

How was CCCc1ccc(C(=O)O/N=C(\N)c2ccccn2)cc1 classified in this test?
no (0)

How was NC(=O)c1cc([N+](=O)[O-])ccc1NCc1ccc(O)cc1 classified in this test?
yes (1)

How was O=C(Nc1ccc(S(=O)(=O)N2CCCC2)cc1)c1ccc([N+](=O)[O-])o1 classified in this test?
no (0)

How was COC(=O)c1cn(NC(=O)c2cc([N+](=O)[O-])ccc2F)c(=O)c2ccccc12 classified in this test?
yes (1)

----------
What inhibition was measured for each of the following?
Target: Nuclear receptor coactivator 1 (Homo sapiens)
Test: SRC1 coactivator transcriptional activity inhibitors, confirmation, cell-based, luminescence, quadruplicate (AID 588820);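 further: 0% = DMSO wells and 100% = gossypol 36 µM treated wells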
Conditions: HEK293 GAL4-SRC1 luciferase reporter, at 3.6 µM, active compounds read high
One number for each entry, in %.

Use these answered entries as a reference point.
| Molecule | Study Target | Readout Number |
| --- | --- | --- |
| CC(=O)N1CN(C2CCCC2)Cc2c1sc1c2CCCC1 | Nuclear receptor coactivator 1 (Homo sapiens) | 6.63 |
| CCOc1ccc(NC(=S)N2CCC(NC(=O)c3ccco3)CC2)cc1 | Nuclear receptor coactivator 1 (Homo sapiens) | -7.01 |
| O=C(NCCS(=O)(=O)N1CCN(c2cccc(Cl)c2)CC1)C1CC1 | Nuclear receptor coactivator 1 (Homo sapiens) | -3.41 |
| CCn1c(Oc2cccc(Br)c2)nc2c1c(=O)n(C)c(=O)n2C | Nuclear receptor coactivator 1 (Homo sapiens) | 15.8 |
| CN(C)c1ccc(Nc2ncnc3ccc(Br)cc23)cc1 | Nuclear receptor coactivator 1 (Homo sapiens) | 40.8 |
| COC(=O)C12OCC34C(CC5C(C)=C(O)C(=O)CC5(C)C3C(O)C1O)OC(=O)C(OC(=O)C=C(C)C)C24 (centres undefined) | Nuclear receptor coactivator 1 (Homo sapiens) | 95.2 |

# batch: return inhibition for each of the 6 molecules below
1. Cc1cc(C)cc(C(=O)Nc2cccc(NC(=O)c3ccco3)c2)c1
2. Cc1nc2cc(N3CCN(C)CC3)c(NC(=O)Cc3ccccc3)cc2c(=O)n1Cc1ccccc1
3. CC(C)(C)c1ccc(/C=N/Nc2ccc(C(=O)O)cc2)cc1
4. CN(C)C(=O)c1cccc(-c2cnc3cccnn23)c1
5. Cc1ccc(O)c(Nc2ncnc3ccc([N+](=O)[O-])cc23)c1
6. Cc1ccc(-n2c(-c3ccc(Br)cc3)c[n+]3c2CCc2ccc4cccnc4c2-3)cc1

1: -11.1; 2: -11.5; 3: 13.3; 4: -7.49; 5: 17.6; 6: 74.8

# batch: return inhibition for each of the 2 molecules below
1. O=C(OCCC12CC3CC(CC(C3)C1)C2)c1ccc(NCc2cc(O)ccc2O)cc1
2. N#Cc1cc2ccncc2c2ccccc12

1. 11.1
2. 30.8
